# Assay name: chemical genetic growth profiling, strain panel (AID 1159580);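 note: tested at 20 µM; growth read once vehicle control cultures reached saturation at 30 °C; 1 = growth at the plate median or of vehicle wells; lower values mean less growth of the strain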
# Assay conditions: S. cerevisiae deletion strains, growth OD, locus YMR263W, strain SAP30, hits give low values
Out of some 5,500 compounds screened, about 2,000 (36%) were called active. Inconclusive results (about 18%) are left out. This is one part of the list.
# maps each entry to its normalized growth
Answer with a bare number; do not write a unit.

COC(C)(C)CCC[C@H](C)C/C=C/C(C)=C/C(=O)OC(C)C	1.01

Now take the following molecule into account.
response.value for Cc1occc(=O)c1/C=C/O (field: normalized growth) = 0.999

###

# Assay name: chemical genetic growth profiling, strain panel (AID 1159580);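 note: tested at 20 µM; growth read once vehicle control cultures reached saturation at 30 °C; 1 = growth at the plate median or of vehicle wells; lower values mean less growth of the strain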
# Assay conditions: S. cerevisiae deletion strains, growth OD, locus YLR371W, strain rom2, hits give low values
Out of some 5,500 compounds screened, about 2,000 (36%) were called active. About 18% were inconclusive and are not listed. The list shows a part of the results.
Readout type: normalized growth
Answer with a bare number; do not write a unit.

These solved cases illustrate the format of a correct answer.
C1CCN2C[C@@H]3C[C@H](CN4CCCC[C@@H]34)[C@H]2C1	0.999
COc1ccccc1OCCNCC(O)COc1cccc2[nH]c3ccccc3c12 (stereo unspecified)	1.01

response.value for CC(C)N(C(=O)SCC(Cl)=C(Cl)Cl)C(C)C (field: normalized growth) = 1

response.value for CCC[C@H]1CC2=C(C[C@@H](CC)CC3=C1C(=O)OC3=O)C(=O)OC2=O (field: normalized growth) = 1.03

response.value for C[C@H]1[C@H]2CCC3C4CC=C5C[C@@H](N(C)C)CC[C@]5(C)C4CC[C@@]32CN1C (stereo partly specified) (field: normalized growth) = 0.981

response.value for CCCCC(CC)CN1CN(CC(CC)CCCC)CC(C)(N)C1 (stereo unspecified) (field: normalized growth) = 0.23

response.value for Nc1nc2ncc(C(=O)O)nc2c(=O)[nH]1 (field: normalized growth) = 1.06

response.value for NCC(CC(=O)O)c1ccc(Cl)s1 (stereo unspecified) (field: normalized growth) = 0.986

response.value for C=C(CC)C(=O)c1ccc(OCC(=O)O)c(Cl)c1Cl (field: normalized growth) = 0.953

response.value for O=C1CCCC2C3CC(CN12)[C@@H]1CCCCN1C3 (stereo partly specified) (field: normalized growth) = 0.984

response.value for C=C[C@@H](C1=CC(=O)C(OC)=C(OC)C1=O)c1ccccc1 (field: normalized growth) = 0.285

###

# Assay name: chemical genetic growth profiling, strain panel (AID 1159580);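 note: tested at 20 µM; growth read once vehicle control cultures reached saturation at 30 °C; 1 = growth at the plate median or of vehicle wells; lower values mean less growth of the strain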
# Assay conditions: S. cerevisiae deletion strains, growth OD, locus YOR231W, strain MKK1, hits give low values
Out of some 5,500 compounds screened, about 2,000 (36%) were called active. About 18% were inconclusive and are not listed. The list shows a part of the results.
Sorting guide: entries reporting normalized growth beneath 1 go in the t pile, the rest go in the f pile.

Consider the worked cases shown below.
CCC(Cc1c(I)cc(I)c(N)c1I)C(=O)O (stereo not drawn)	t
O=C(NC(=O)c1c(F)cccc1Cl)OCc1ccc(Cl)cc1Cl	t
O=C(NC(=O)c1c(F)cccc1F)Nc1ccc(Cl)cc1	f
CC(=O)O[C@@H]1CC2C(C)(C)C(=O)CC[C@]2(C)C2CC[C@]3(C)C(=CC(=O)O[C@H]3c3ccoc3)[C@@]21C (stereo partly drawn)	f
Nc1ncnc2c1ncn2[C@@H]1O[C@H](CO)[C@@H](O)[C@H]1O	f

Consider the record given below.
Ask: Consider CC(C)(C)c1ccc(C(O)CCCN2CCC(C(O)(c3ccccc3)c3ccccc3)CC2)cc1 (stereo not drawn) . Does its normalized growth lie strictly below 1?
Reply: t
